test system: TK-10 renal; assay: NCI tumour cell line growth inhibition, 48 h
Reported GI50 values follow for various compounds

C[n+]1cccc(NC(=O)c2ccc3ccc4ccc(C(=O)Nc5ccc[n+](C)c5)nc4c3n2)c1; 53.7 µM
COc1ccc(-c2nc3sccn3c2-c2ccnc(NCCNS(=O)(=O)c3ccc(C(F)(F)F)cc3)n2)cc1; 2.87 µM
COc1ccc(N=Nc2ccc(O)c(=O)cc2)cc1; 5.8 µM
Nc1c(C(=O)Nc2cccc(Cl)c2)sc2nc3c(cc12)C(O)CCC3 (stereo not given); 10.8 µM

Now look at this entry.
// GI50 lookup, key: O=C(Cc1cc(O)ccc1O)NO 57.6 µM

----------
system: A498 renal; test: NCI tumour cell line growth inhibition, 48 h
Reported TGI values follow for various molecules

Worked examples, 4 molecules total:
O=C(c1ccccc1)c1ccc(N2C(=O)/C(=C/c3ccccc3S)N=C2c2ccccc2)c(N2C(=O)/C(=C/c3ccccc3S)N=C2c2ccccc2)c1; > 100 µM
Cc1n[nH]c(=O)n1/N=C/c1ccco1; > 100 µM
COc1ccc2[nH]c(C(=O)OCc3ccc4c(Br)cc(Br)c(O)c4n3)cc2c1; 3.31 µM
NC(=O)C1=C(O)[C@@]2(O)C(=O)C3=C(O)c4c(O)cccc4CC3C[C@H]2CC1=O (some centres not stated); 12.9 µM

// TGI lookup, key: Cn1c2ncccc2n2c(=O)cc(O)cc12 > 100 µM

// TGI lookup, key: C/C=C\C1OC1(C)c1cc(=O)c2c(C)cc3c(c2o1)C(=O)c1c(O)c(C2CC(C)(N(C)C)C(OC(C)=O)C(C)O2)cc(C2CC(N(C)C)C(O)C(C)O2)c1C3=O (configuration not stated) 0.0215 µM

// TGI lookup, key: O=C(O)c1ccc(CSc2nc3ccccc3[nH]2)cc1 > 100 µM

// TGI lookup, key: Cc1cc(-c2nc3cc(F)ccc3s2)ccc1N 66.8 µM

// TGI lookup, key: C[n+]1cccc(NC(=O)c2ccc3ccc4ccc(C(=O)Nc5ccc[n+](C)c5)nc4c3n2)c1 > 28 µM

----------
system: IGROV1 ovarian; assay: NCI tumour cell line growth inhibition, 48 h
endpoint.name: TGI

Worked examples, 5 molecules total:
CS(=O)(=O)N1CCC(Nc2ncc(C(=O)c3c(F)cccc3F)c(N)n2)CC1; > 25 µM
CCCCCCC(=O)OC[n+]1ccc(-c2c(COC(=O)NC(C)C)c(COC(=O)NC(C)C)c3n2CCC3)cc1; > 100 µM
CCOC(=O)c1ccc(N=C2Sc3nc4ccccc4n3C2=Nc2ccc(C(=O)OCC)cc2)cc1; 60.4 µM
CC1CC(C)(O)C2C3(C)CCCC2(COC3=O)C12CCC1(CCOC1=O)O2 (centres undefined); > 250 µM
N#Cc1c(C#N)c(SSc2c(C#N)c(C#N)c(N)n2-c2cccc3ccccc23)n(-c2cccc3ccccc23)c1N; > 100 µM

Please state recorded TGI (tested on IGROV1 ovarian) of OC1C2CCCCN2C[C@@H](O)[C@H]1O (some centres undefined) > 100 µM

Please state recorded TGI (tested on IGROV1 ovarian) of Nc1nc(N)c2cc(S(=O)(=O)c3ccc4ccccc4c3)ccc2n1 > 100 µM

Please state recorded TGI (tested on IGROV1 ovarian) of Cc1cn(CC(=S)NCCc2c[nH]c3ccccc23)c(=O)[nH]c1=O > 100 µM

Please state recorded TGI (tested on IGROV1 ovarian) of CC(=O)NC1C(OCc2ccccc2)OC(CO)C(O)C1OCC(=O)NC(C(=O)NC(CCC(=O)NCCCCCC(=O)Nc1ccc2c(c1)CN1C(=O)c3ccccc3C1=N2)C(N)=O)C(C)C (centres undefined) 50.4 µM

----------
tested on: T-47D breast; test: NCI tumour cell line growth inhibition, 48 h; in the data active = GI50 below about 0.43 µM; inactive = the rest
Respond only with the outcome that fits, drawn from True (active), False (inactive)

CSC1=CC(=O)c2ccccc2C1=O; True
CC(=O)Oc1ccc(C2OC(c3ccc4ccccc4c3OC(C)=O)=NN2C(C)=O)c(OC(C)=O)c1 (stereo not drawn); False
N#CC1=C(N)N=C(N2CCOCC2)C(C#N)C12Nc1ccccc1S2 (stereo not drawn); False
CC1(C)N=C(N)N=C(N)N1c1ccc(OCC(=O)Nc2ccc(S(=O)(=O)F)cc2Cl)c(Cl)c1; False
Nc1c(C(=O)Nc2cccc(Cl)c2)sc2nc3c(cc12)C(O)CCC3 (stereo not drawn); False

Fill in: this test's call for CC[C@]12C=CCN3CC[C@@]4(c5ccc(OC)cc5N(C)[C@H]4[C@@](O)(C(=O)OC)[C@@H]1OC(=O)CCC(=O)O[C@H]1CC[C@H]4[C@@H]5CCC6=CC(=O)CC[C@@H]6[C@H]5CC[C@]14C)[C@@H]32 is ___ False

Fill in: this test's call for COc1ccc(-c2cc(=O)c3c(OC)c4ccoc4c(/C=C/C=O)c3o2)cc1 is ___ False

Fill in: this test's call for Cc1nc2ccc(-n3ncc(C(=O)c4cc5ccccc5[nH]4)c3N)cc2[nH]1 is ___ False

Fill in: this test's call for COc1ccc(N=Nc2ccc(O)c(=O)cc2)cc1 is ___ False

Fill in: this test's call for CO/N=C(/C)COc1ccc2c(c1)oc(=O)c1cc(OC)ccc12 is ___ False

Fill in: this test's call for CC(C)C[C@H](NC(=O)[C@@H](Cc1ccccc1)n1ccc(Nc2ccccc2)cc1=O)B(O)O is ___ True

Fill in: this test's call for NC(=O)c1c[nH]c2ncnc(N)c12 is ___ False

Fill in: this test's call for COc1cc(/C=C2\CCC/C(=C\c3cc(CN4CCCC4)c(O)c(OC)c3)C2=O)cc(CN2CCCC2)c1O is ___ False

----------
tested on: HCT-116 colon; assay: NCI tumour cell line growth inhibition, 48 h
Reported TGI values follow for various molecules

NC(=O)C1=C(O)[C@@]2(O)C(=O)C3=C(O)c4c(O)cccc4CC3C[C@H]2CC1=O (stereo not given in full); 12 µM
COc1nc(=O)[nH]c2c1C(c1ccc([N+](=O)[O-])cc1)c1c(OC)nc(=O)[nH]c1O2; > 100 µM
COC(=O)C(=O)C(C(=O)OC)C(=O)C(=O)Nc1cc(Cl)c(C)cc1S(=O)(=O)O (stereo not given); > 100 µM
N#Cc1c(-c2ccccc2)cn(C(=O)c2ccccc2)c1N; > 100 µM

Now look at this entry.
Please state recorded TGI (tested on HCT-116 colon) of COc1ccc(COCC[C@H](C)OC2OC(CO[Si](C)(C)C(C)(C)C)C(O)C(O)C2O)cc1 (stereo not given in full) > 100 µM

----------
tested on: RPMI-8226 leukemia; test: NCI tumour cell line growth inhibition, 48 h
endpoint.name: TGI (µM)
Provide only the numeric value, understood in µM.

CCOC(=O)C#Cc1cccc(C#CC(=O)OCC)c1; 13
O=C(Cc1cc(O)ccc1O)NO; 40
O=S(=O)(NCCNc1nccc(-c2c(-c3ccc(F)cc3)nc3sccn23)n1)c1ccc(O)cc1; 29.3

// TGI lookup, key: OC1(C(Sc2ccccc2)Sc2ccccc2)CCCCCC1 52.4

// TGI lookup, key: C=C(C)COc1ccc2c(c1)CCC1C2CCC2(C)C(=O)/C(=N/O)CC12 (stereo unspecified) 7.54

// TGI lookup, key: NC(=O)c1c[nH]c2ncnc(N)c12 50.7

// TGI lookup, key: Cc1ccc(C(=O)NC2C(=O)NC(C(C)C)C(=O)N3CCCC3C(=O)N(C)CC(=O)N(C)C(C(C)C)C(=O)OC2C)c2c1Oc1c(c(C(=O)NC3C(=O)NC(C(C)C)C(=O)N4CCCC4C(=O)N(C)CC(=O)N(C)C(C(C)C)C(=O)OC3C)c3nc(-c4ccccc4)c(=O)oc3c1C)N2 (stereo unspecified) 0.0442

// TGI lookup, key: CC1(C=O)CC(CCc2ccccc2)NC1Cc1ccc(O)cc1 (stereo unspecified) 40.7

// TGI lookup, key: Cn1cc(-c2csc(-c3ccccc3)n2)c2cccnc21 98

// TGI lookup, key: COc1ccc2nc3c4c(nccc4c2c1)-c1ncccc1C3=O 0.236

----------
Reported TGI values follow for various molecules
test system: A498 renal; test: NCI tumour cell line growth inhibition, 48 h
Provide only the numeric value, understood in µM.

// TGI lookup, key: COc1ccccc1/C=C1\CCC(Cc2ccccc2)(CN(C)C)C1=O (stereo unspecified) 27.6

// TGI lookup, key: COC1(OC)CCN(Cc2ccccc2)C1=O 44

// TGI lookup, key: [O-]c1c2c(nn1-c1ccc(F)cc1)c1ccccc1c[n+]2Cc1ccccc1 85.3

----------
tested on: SF-268 CNS; assay: NCI tumour cell line growth inhibition, 48 h
Reported log10 of TGI values follow for various molecules
Parameter value (number): base-10 log of TGI in µM.

Worked examples, 5 molecules total:
Cc1cc(O)ccc1C1(c2ccc(O)cc2C)OC(=O)c2ccccc21; 1.64
COc1ccc(OC(=O)N2C/C(=C\c3ccccc3)C(=O)/C(=C/c3ccccc3)C2)cc1; 1.18
O=C1/C(=C/c2ccc(Cl)cc2)CN(Cc2cn(CCCNc3ccnc4cc(Cl)ccc34)nn2)C/C1=C\c1ccc(Cl)cc1; 0.30
C=C(C(=O)c1ccccc1)C(NC(C)(C)C)c1ccccc1 (stereo not given); 1.27
CCc1ccc(Oc2c(-c3ccc(OCCc4cccc(C(F)(F)F)c4)cc3O)n[nH]c2C(F)(F)F)cc1; 1.04

// log10 of TGI lookup, key: CC(=O)NC1C(OCc2ccccc2)OC(CO)C(O)C1OCC(=O)NC(C(=O)NC(CCC(=O)NCCCCCC(=O)Nc1ccc2c(c1)CN1C(=O)c3ccccc3C1=N2)C(N)=O)C(C)C (stereo not given) 1.62

// log10 of TGI lookup, key: CCOC(=O)c1c2ccccc2n2c(=O)n(-c3ccc(OC)cc3)nnc12 1.66
